- EXPERIMENTAL_SYSTEM: T1, human serum albumin (human, UniProt P02768 25-609)
- T1 construct: mature; Bought protein; biotinylated in the Octet and HTRF assays; also called HSA; HuSA
- MEASUREMENT_NOTES: SPR (Biacore) binding response to HSA at pH 7.4, Affimer at 50 nM; also: unit not given here
ASSAY_METRIC: binding response

HSA-41 R55A (designed binder) MIPRGLSEAKPATPEIQEIVDKVKPQLEEKTNETYGKLEAVQYKTQVLANFFQRAWPGSTNYYIKVRAGDNKYMHLKVFNGPWKFRNTDRGADRVLTGYQVDKNKDDELTGFHHHHHH ... 2.9

1: HSA-41 G91A (designed binder) MIPRGLSEAKPATPEIQEIVDKVKPQLEEKTNETYGKLEAVQYKTQVLANFFQRRWPGSTNYYIKVRAGDNKYMHLKVFNGPWKFRNTDRAADRVLTGYQVDKNKDDELTGFHHHHHH
2: HSA-41 F52A (designed binder) MIPRGLSEAKPATPEIQEIVDKVKPQLEEKTNETYGKLEAVQYKTQVLANFAQRRWPGSTNYYIKVRAGDNKYMHLKVFNGPWKFRNTDRGADRVLTGYQVDKNKDDELTGFHHHHHH
3: HSA-41 T88A (designed binder) MIPRGLSEAKPATPEIQEIVDKVKPQLEEKTNETYGKLEAVQYKTQVLANFFQRRWPGSTNYYIKVRAGDNKYMHLKVFNGPWKFRNADRGADRVLTGYQVDKNKDDELTGFHHHHHH
Rank by binding response (largest to smallest). Answer with the labels in sequence, matching the requested order. 3, 1, 2
